- Tested on: Plasmodium falciparum Dd2 asexual blood stage parasites
- ASSAY: microbe, parasite or virus in culture
- Set-up: species or system Plasmodium falciparum Dd2 in human erythrocytes; single determination (one 11-point concentration-response curve)
- SETUP CONDITIONS: Plasmodium falciparum, DD2, Erythrocyte, 72 h; read-out: AC50
This listing pairs compounds with measured AC50.
The answer consists of two parts: a number and, after it, its unit.

Reference set, count: 10
# COMPOUND, AC50
rows = [
    ("COc1ccc(-n2nc(C(=O)NCCc3ccc(OC)c(OC)c3)c3c4ccccc4n(C)c3c2=O)cc1Cl", "2.99 µM"),
    ("CCN(Cc1ccccc1)C(=O)CCC[C@@H]1[C@H]2CCCN3CCC[C@@H](CN1C(=O)c1ccccc1)[C@@H]23", "13.3 µM"),
    ("CC1CCCN(Cc2c(O)ccc3c(=O)c(Oc4ccc(C(C)(C)C)cc4)c(C(F)(F)F)oc23)C1 (stereo not shown)", "0.299 µM"),
    ("CCc1ccc([S+](=O)([O-])c2nnn3c2nc(Nc2ccc(F)cc2)c2cc(Cl)ccc23)cc1", "2.11 µM"),
    ("Cc1ccc(Sc2ccc(NC(=O)CCl)cc2)cc1C", "9.44 µM"),
    ("CCc1cc(C(=O)OC)c(NC(=O)CN2CCN(C(=O)c3ccco3)CC2)s1", "5.96 µM"),
    ("CN(C)C(C(=O)N1CCC(F)(F)CC1)c1ccccc1F (stereo not shown)", "15 µM"),
    ("COc1ccc(S(=O)(=O)N2CCN(/C(S)=N/C3CCCCC3)CC2)cc1", "6.68 µM"),
    ("COc1ccc2c(c1)c(CN1CCCCCCN(C)C(=O)[C@@H]3CCC[C@@H]31)cn2C", "15 µM"),
    ("CCOc1cc(C(=O)Nc2ccc3nc(Nc4cccc(Cl)c4)cc(C)c3c2)cc(OCC)c1OCC", "1.88 µM"),
]

Ask | Which AC50 value belongs to `COc1ccc(Nc2ccccc2NC(=O)c2ccccc2Br)cc1` ?
Reply | 5.96 µM

Ask | Which AC50 value belongs to Cc1nc2sc(C(c3ccco3)N3CCN(C(c4ccccc4)c4ccccc4)CC3)c(O)n2n1 (stereo not shown) ?
Reply | 5.96 µM

Ask | Which AC50 value belongs to `CCOC(=O)c1ccc(Nc2nc(N)c3cc(OC)c(OC)cc3n2)cc1` ?
Reply | 1.88 µM

Ask | Which AC50 value belongs to `CCCc1ccc(OCc2nc(-c3ccc(NC(=O)c4cccs4)cc3)no2)cc1` ?
Reply | 15 µM

Ask | Which AC50 value belongs to COc1ccc(C)cc1NC(=O)N1CCCC2(C1)Nc1cccnc1N=C2NC1CCCC1 (stereo not shown) ?
Reply | 6.68 µM

Ask | Which AC50 value belongs to `Cc1cccc(-c2cc(C(=O)Nc3ccncc3)c3ccccc3n2)c1` ?
Reply | 8.41 µM

----------
- System: P. berghei-ANKA-GFP-LucCON liver stage parasites in HepG2-A16-CD81EGFP cells
- ASSAY: P. berghei liver stage Pb-Luc assay, Method 1 (UCSD, 1536-well)
- Assay type: cell-based, Plasmodium berghei
- SETUP CONDITIONS: Plasmodium berghei, 48 h, nominal 1 uM (10 mM stock); […] for 15 mM, 1.2 uM for 12 mM, 2 uM for 20 mM stock; average of 2 wells, 1536-well plate; repeat 1; read-out: Pb-Luc signal, 1 uM, repeat 1
Threshold check on activity at 1 µM: at or above 70% gives y, strictly below gives n.

Here are 5 compounds together with their reported answers.
# COMPOUND, CAT
records = [
    ("Oc1ccc(CN2CC(CNc3ccccc3)C3(C2)CN(c2ccccc2)C3)cc1 (stereo not drawn) [NCGC00416032-01]", "n"),
    ("CN(C)CCCNc1cc(N2CCN(C3CCCCC3)CC2)c2noc3c2c1C(=O)c1ccccc1-3 [NCGC00111069-01]", "n"),
    ("COc1ccc(Nc2cnc3ccc(-c4ccc(OC)c(OC)c4)nn23)cc1 [NCGC00412624-01]", "n"),
    ("CC(C)C(=O)N1Cc2ccccc2CC2(CCCN(CC3CCCCC3)C2)C1 (stereo not drawn) [NCGC00377456-01]", "y"),
    ("CCOC(=O)c1ccc(NC2=CC(c3ccc(O)c(OCC)c3)N(c3ccc(C(=O)OCC)cc3)C2=O)cc1 (stereo not drawn) [NCGC00102600-01]", "y"),
]

Ask | Does the compound Oc1ccccc1-c1cc(-c2cccnc2)c2cncn2c1 [NCGC00412170-01] have recorded activity at 1 µM that is 70% or more?
Reply | y

Ask | Does the compound CCN1CCN(c2cc(C)c3cc(NC(=O)c4cc(OC)c(OC)c(OC)c4)ccc3n2)CC1 [NCGC00137500-01] have recorded activity at 1 µM that is 70% or more?
Reply | y

Ask | Does the compound CCCN1C(CC(C)C)=N[S+](=O)([O-])c2cc(NC(=O)c3cccs3)ccc21 [NCGC00473217-01] have recorded activity at 1 µM that is 70% or more?
Reply | n
